Please provide measured ALT for the entries that follow.
Organism: Rattus norvegicus
Test Name: Open TG-GATES - Regimen: Single
Assay type: toxicity, organism-based, Sprague-Dawley
Set-up: regimen Single, gender Male, age 6 weeks
Assay Setup: in vivo, po, 100 mg/kg, 6 h, tissue Plasma, route gavage, dose level Low
Numbers only, in IU/L.

CN/C(=N/CCSCc1nc[nH]c1C)NC#N [CIMETIDINE] :: 34.4

If you can, please state the reported ALT value of O=C(OC[C@H]1O[C@@H](OC(=O)c2cc(O)c(O)c(OC(=O)c3cc(O)c(O)c(O)c3)c2)[C@H](OC(=O)c2cc(O)c(O)c(OC(=O)c3cc(O)c(O)c(O)c3)c2)[C@@H](OC(=O)c2cc(O)c(O)c(OC(=O)c3cc(O)c(O)c(O)c3)c2)[C@@H]1OC(=O)c1cc(O)c(O)c(OC(=O)c2cc(O)c(O)c(O)c2)c1)c1cc(O)c(O)c(OC(=O)c2cc(O)c(O)c(O)c2)c1 [TANNIC ACID] .
38.6

---

Organism: Rattus norvegicus
Test Name: Open TG-GATES - Regimen: Single
Format: toxicity, organism-based, Sprague-Dawley
Design: regimen Single, gender Male, age 6 weeks
Assay Setup: in vivo, po, 100 mg/kg, 24 h, tissue Blood, route gavage, dose level Low
Assay Readout: WBC (x10_2/uL)
Give bare numbers, in x10_2/uL.

Please look at the items below and tell me WBC for each one, in order.
1. COC(=O)C1=C(C)NC(C)=C(C(=O)OC)C1c1ccccc1[N+](=O)[O-]
2. CNC(=C[N+](=O)[O-])NCCSCc1ccc(CN(C)C)o1

1: 87.9; 2: 100.7

Return reported WBC values for all items listed beneath this line.
1. CN/C(=N/CCSCc1nc[nH]c1C)NC#N
2. Cc1nnc2n1-c1ccc(Cl)cc1C(c1ccccc1Cl)=NC2

109.1
109.3

Please give the measured WBC for this molecule: `O=C(OC[C@H]1O[C@@H](OC(=O)c2cc(O)c(O)c(OC(=O)c3cc(O)c(O)c(O)c3)c2)[C@H](OC(=O)c2cc(O)c(O)c(OC(=O)c3cc(O)c(O)c(O)c3)c2)[C@@H](OC(=O)c2cc(O)c(O)c(OC(=O)c3cc(O)c(O)c(O)c3)c2)[C@@H]1OC(=O)c1cc(O)c(O)c(OC(=O)c2cc(O)c(O)c(O)c2)c1)c1cc(O)c(O)c(OC(=O)c2cc(O)c(O)c(O)c2)c1`
96.6

---

Exercise: state measured RALB for each of the molecules provided.
Species on record: Rattus norvegicus
Test Name: Open TG-GATES - Regimen: Daily Repeat
Type: toxicity, organism-based, Sprague-Dawley
Parameters: regimen Daily Repeat, gender Male, age 6 weeks
Assay Setup: in vivo, po, 0 mg/kg, […], tissue Plasma, route gavage, dose level Control, time 7 day
Answers are plain numbers, in g/dL.

O=C(OC[C@H]1O[C@@H](OC(=O)c2cc(O)c(O)c(OC(=O)c3cc(O)c(O)c(O)c3)c2)[C@H](OC(=O)c2cc(O)c(O)c(OC(=O)c3cc(O)c(O)c(O)c3)c2)[C@@H](OC(=O)c2cc(O)c(O)c(OC(=O)c3cc(O)c(O)c(O)c3)c2)[C@@H]1OC(=O)c1cc(O)c(O)c(OC(=O)c2cc(O)c(O)c(O)c2)c1)c1cc(O)c(O)c(OC(=O)c2cc(O)c(O)c(O)c2)c1 :: 3.6
CCOc1ccc(NC(C)=O)cc1 :: 2.7
COC(=O)C1=C(C)NC(C)=C(C(=O)OC)C1c1ccccc1[N+](=O)[O-] :: 2.7
CN/C(=N/CCSCc1nc[nH]c1C)NC#N :: 3.4

Batch of 7 molecules: report RALB for each.
1. CCCc1cc(=O)[nH]c(=S)[nH]1
2. NC1=NC(=O)C(c2ccccc2)O1 (stereo not drawn)
3. CC(C)NNC(=O)c1ccncc1
4. CNC(=C[N+](=O)[O-])NCCSCc1ccc(CN(C)C)o1
5. Brc1ccccc1
6. CN(C)CCC(c1ccc(Cl)cc1)c1ccccn1 (stereo not drawn)
7. Nc1c2c(nc3ccccc13)CCCC2

3.9
2.7
2.9
3.4
2.7
2.8
2.9

For the 2 molecules below, give their RALB values.
1. Cc1nnc2n1-c1ccc(Cl)cc1C(c1ccccc1Cl)=NC2
2. CN1C(=O)CCS(=O)(=O)C1c1ccc(Cl)cc1 (stereo not drawn)

1: 2.6; 2: 2.8

---

I'd be grateful if you could share measured LDH for these entries.
Species: Rattus norvegicus
Test Name: Open TG-GATES - Regimen: Daily Repeat
Assay type: toxicity, organism-based, Sprague-Dawley
Parameters: regimen Daily Repeat, gender Male, age 6 weeks
Assay Setup: in vivo, po, 100 mg/kg, […], tissue Plasma, route gavage, dose level Low, time 7 day
Give bare numbers, in IU/L.

Take a look at these entries with their results.
CCOc1ccc(NC(C)=O)cc1 :: 79.4
CN/C(=N/CCSCc1nc[nH]c1C)NC#N :: 155
CNC(=C[N+](=O)[O-])NCCSCc1ccc(CN(C)C)o1 :: 174.4
COC(=O)C1=C(C)NC(C)=C(C(=O)OC)C1c1ccccc1[N+](=O)[O-] :: 86.4
O=C(OC[C@H]1O[C@@H](OC(=O)c2cc(O)c(O)c(OC(=O)c3cc(O)c(O)c(O)c3)c2)[C@H](OC(=O)c2cc(O)c(O)c(OC(=O)c3cc(O)c(O)c(O)c3)c2)[C@@H](OC(=O)c2cc(O)c(O)c(OC(=O)c3cc(O)c(O)c(O)c3)c2)[C@@H]1OC(=O)c1cc(O)c(O)c(OC(=O)c2cc(O)c(O)c(O)c2)c1)c1cc(O)c(O)c(OC(=O)c2cc(O)c(O)c(O)c2)c1 :: 87.6

Turning to the following molecule.
# lookup: LDH of `Cc1nnc2n1-c1ccc(Cl)cc1C(c1ccccc1Cl)=NC2`
77.4

---

Species: Rattus norvegicus
Test Name: Open TG-GATES - Regimen: Single
Format: toxicity, organism-based, Sprague-Dawley
Design: regimen Single, gender Male, age 6 weeks
Assay Setup: in vivo, po, 100 mg/kg, 6 h, tissue Blood, route gavage, dose level Low
I'd appreciate it if you could supply APTT values for the items below.
Answers are plain numbers, in s.

Here are 2 molecules together with their reported answers.
CN/C(=N/CCSCc1nc[nH]c1C)NC#N [CIMETIDINE] :: 18.8
CNC(=C[N+](=O)[O-])NCCSCc1ccc(CN(C)C)o1 [RANITIDINE] :: 17.7

Quick check: APTT of COC(=O)C1=C(C)NC(C)=C(C(=O)OC)C1c1ccccc1[N+](=O)[O-] [NIFEDIPINE] ?
16.8

---

Organism: Rattus norvegicus
Test Name: Open TG-GATES - Regimen: Daily Repeat
Assay type: toxicity, organism-based, Sprague-Dawley
Parameters: regimen Daily Repeat, gender Male, age 6 weeks
Assay Setup: in vivo, po, 1000 mg/kg, […], tissue Plasma, route gavage, dose level High, time 14 day
// f strictly below 800 IU/L in ALP; t otherwise

Worked set:
COC(=O)C1=C(C)NC(C)=C(C(=O)OC)C1c1ccccc1[N+](=O)[O-] [NIFEDIPINE] :: t
Cc1nnc2n1-c1ccc(Cl)cc1C(c1ccccc1Cl)=NC2 [TRIAZOLAM] :: t
O=C(OC[C@H]1O[C@@H](OC(=O)c2cc(O)c(O)c(OC(=O)c3cc(O)c(O)c(O)c3)c2)[C@H](OC(=O)c2cc(O)c(O)c(OC(=O)c3cc(O)c(O)c(O)c3)c2)[C@@H](OC(=O)c2cc(O)c(O)c(OC(=O)c3cc(O)c(O)c(O)c3)c2)[C@@H]1OC(=O)c1cc(O)c(O)c(OC(=O)c2cc(O)c(O)c(O)c2)c1)c1cc(O)c(O)c(OC(=O)c2cc(O)c(O)c(O)c2)c1 [TANNIC ACID] :: f

Would you say CCOc1ccc(NC(C)=O)cc1 [PHENACETIN] shows ALP at minimum 800 IU/L?
t

---

Species: Rattus norvegicus
Test Name: Open TG-GATES - Regimen: Single
Type: toxicity, organism-based, Sprague-Dawley
Design: regimen Single, gender Male, age 6 weeks
Assay Setup: in vivo, po, 0 mg/kg, 3 h, tissue Liver, route gavage, dose level Control
Assay Readout: LIVER (g)
Give bare numbers, in g.

O=C(OC[C@H]1O[C@@H](OC(=O)c2cc(O)c(O)c(OC(=O)c3cc(O)c(O)c(O)c3)c2)[C@H](OC(=O)c2cc(O)c(O)c(OC(=O)c3cc(O)c(O)c(O)c3)c2)[C@@H](OC(=O)c2cc(O)c(O)c(OC(=O)c3cc(O)c(O)c(O)c3)c2)[C@@H]1OC(=O)c1cc(O)c(O)c(OC(=O)c2cc(O)c(O)c(O)c2)c1)c1cc(O)c(O)c(OC(=O)c2cc(O)c(O)c(O)c2)c1 :: 9.5
CN/C(=N/CCSCc1nc[nH]c1C)NC#N :: 10.1
CNC(=C[N+](=O)[O-])NCCSCc1ccc(CN(C)C)o1 :: 9.7
CS(=O)(=O)O.Cc1ccc(NC(=O)c2ccc(CN3CCN(C)CC3)cc2)cc1Nc1nccc(-c2cccnc2)n1 [IMATINIB MESYLATE] :: 9.6
CN(C)CCC(c1ccc(Cl)cc1)c1ccccn1 (stereo unspecified) :: 9.2

Continue with the molecule presented below.
LIVER lookup needed for CN1C(=O)CCS(=O)(=O)C1c1ccc(Cl)cc1 (stereo unspecified) , thanks.
10.3
